Data origin, for the record: patent US20240115496A1

assay_remarks: In vivo pharmacokinetics, lung tissue homogenate (UPLC-MS/MS)
Design: species or system rat
particulars: male, Sprague-Dawley (SD), lung tissue (homogenate supernatant); BA in rat lung tissue; tail intravenous injection group, 9 mg/kg
measurement_type: Tmax (min)

INSERT INTO measurements (smiles_data, unit_descriptor, numeric_result) VALUES
  ('O=C(O)[C@H]1O[C@@H](Oc2cc3oc(-c4ccccc4)cc(=O)c3c(O)c2O)[C@H](O)[C@@H](O)[C@@H]1O', 'min', 1.98);

* * *

assay_remarks: In vivo pharmacokinetics, lung tissue homogenate (UPLC-MS/MS)
Design: species or system rat
particulars: male, Sprague-Dawley (SD); rat lung tissue homogenate; tail intravenous injection BA/AH-DPI saline solution 9 mg/kg; 60 min; read-out: Drug concentration of AH in lung tissue
Counter-ions that a name gives are not always drawn.
measurement_type: concentration at 60 min (ng/mL)

INSERT INTO measurements (molecule, numeric_result) VALUES
  ('Nc1c(Br)cc(Br)cc1CNC1CCC(O)CC1 (stereo not shown) [AH, ambroxol hydrochloride]', 352);

* * *

assay_remarks: In vivo pharmacokinetics, plasma (UPLC-MS/MS)
Set-up: species or system rat
particulars: male, SD, inhaled or intranasal; AH in rat plasma; pulmonary administration group, BA/AH-DPI 9 mg/kg; read-out: CL/F (clearance) (converted)
Where a name gives a salt, the structure may show the parent alone.
measurement_type: CL/F (mL/min/kg)

INSERT INTO measurements (compound, numeric_result) VALUES
  ('Nc1c(Br)cc(Br)cc1CNC1CCC(O)CC1 (stereo not shown) [AH, ambroxol hydrochloride]', 237);

* * *

assay_remarks: In vivo pharmacokinetics, plasma (UPLC-MS/MS)
Parameters: species or system rat
particulars: male, Sprague-Dawley (SD); rat plasma; tail intravenous injection BA/AH-DPI saline solution 9 mg/kg; 4 min; read-out: Blood concentration of AH
Structures can show the parent of a compound that is named as a salt.
measurement_type: concentration at 4 min (ng/mL)

INSERT INTO measurements (compound, measurement_type, numeric_result) VALUES
  ('Nc1c(Br)cc(Br)cc1CNC1CCC(O)CC1 (stereo not shown) [AH, ambroxol hydrochloride]', 'concentration at 4 min', 598);

* * *

assay_remarks: In vivo pharmacokinetics, lung tissue homogenate (UPLC-MS/MS)
Set-up: species or system rat
particulars: male, Sprague-Dawley (SD), lung tissue (homogenate supernatant), inhaled or intranasal; BA in rat lung tissue; pulmonary administration group, BA/AH-DPI 9 mg/kg; read-out: HLz (biological half-life) (converted)
measurement_type: half-life

INSERT INTO results (smiles_data, measurement_type, result) VALUES
  ('O=C(O)[C@H]1O[C@@H](Oc2cc3oc(-c4ccccc4)cc(=O)c3c(O)c2O)[C@H](O)[C@@H](O)[C@@H]1O', 'half-life', '1.4 h');

* * *

assay_remarks: In vivo pharmacokinetics, plasma (UPLC-MS/MS)
Set-up: species or system rat
particulars: male, SD, inhaled or intranasal; AH in rat plasma; pulmonary administration group, BA/AH-DPI 9 mg/kg; read-out: MRTlast (mean retention time)
Counter-ions that a name gives are not always drawn.
measurement_type: MRT last (min)

INSERT INTO assay_data (molecule, numeric_result) VALUES
  ('Nc1c(Br)cc(Br)cc1CNC1CCC(O)CC1 (stereo not shown) [AH, ambroxol hydrochloride]', 49.8);

* * *

assay_remarks: In vivo pharmacokinetics, lung tissue homogenate (UPLC-MS/MS)
Set-up: species or system rat
particulars: male, Sprague-Dawley (SD), inhaled; rat lung tissue homogenate; pulmonary administration BA/AH-DPI 9 mg/kg; 360 min; read-out: Drug concentration of BA in lung tissue
measurement_type: concentration at 360 min (ng/mL)

INSERT INTO measurements (compound, measurement_type, numeric_result) VALUES
  ('O=C(O)[C@H]1O[C@@H](Oc2cc3oc(-c4ccccc4)cc(=O)c3c(O)c2O)[C@H](O)[C@@H](O)[C@@H]1O [BA, baicalin]', 'concentration at 360 min', 43.1);

* * *

assay_remarks: In vivo pharmacokinetics, lung tissue homogenate (UPLC-MS/MS)
Design: species or system rat
particulars: male, Sprague-Dawley (SD), inhaled; rat lung tissue homogenate; pulmonary administration BA/AH-DPI 9 mg/kg; 240 min; read-out: Drug concentration of BA in lung tissue
measurement_type: concentration at 240 min (ng/mL)

INSERT INTO results (smiles_data, numeric_result) VALUES
  ('O=C(O)[C@H]1O[C@@H](Oc2cc3oc(-c4ccccc4)cc(=O)c3c(O)c2O)[C@H](O)[C@@H](O)[C@@H]1O', 92.2);

* * *

assay_remarks: In vivo pharmacokinetics, lung tissue homogenate (UPLC-MS/MS)
Parameters: species or system rat
particulars: male, Sprague-Dawley (SD), inhaled; rat lung tissue homogenate; pulmonary administration BA/AH-DPI 9 mg/kg; 10 min; read-out: Drug concentration of BA in lung tissue
measurement_type: concentration at 10 min (ng/mL)

INSERT INTO assay_data (compound, unit_descriptor, numeric_result) VALUES
  ('O=C(O)[C@H]1O[C@@H](Oc2cc3oc(-c4ccccc4)cc(=O)c3c(O)c2O)[C@H](O)[C@@H](O)[C@@H]1O [BA, baicalin]', 'ng/mL', 3190);

* * *

assay_remarks: In vivo pharmacokinetics, plasma (UPLC-MS/MS)
Design: species or system rat
particulars: male, SD, inhaled; rat plasma; pulmonary administration BA/AH-DPI 9 mg/kg; 2 min; read-out: Blood concentration of AH
Structures can show the parent of a compound that is named as a salt.
measurement_type: concentration at 2 min (ng/mL)

INSERT INTO results (compound, measurement_type, unit_descriptor, numeric_result) VALUES
  ('Nc1c(Br)cc(Br)cc1CNC1CCC(O)CC1 (stereo not shown) [AH, ambroxol hydrochloride]', 'concentration at 2 min', 'ng/mL', 763);

* * *

assay_remarks: In vivo pharmacokinetics, lung tissue homogenate (UPLC-MS/MS)
Parameters: species or system rat
particulars: male, Sprague-Dawley (SD); rat lung tissue homogenate; tail intravenous injection BA/AH-DPI saline solution 9 mg/kg; 10 min; read-out: Drug concentration of BA in lung tissue
measurement_type: concentration at 10 min (ng/mL)

INSERT INTO assay_data (compound, measurement_type, numeric_result) VALUES
  ('O=C(O)[C@H]1O[C@@H](Oc2cc3oc(-c4ccccc4)cc(=O)c3c(O)c2O)[C@H](O)[C@@H](O)[C@@H]1O [BA, baicalin]', 'concentration at 10 min', 45.1);

* * *

assay_remarks: In vivo pharmacokinetics, lung tissue homogenate (UPLC-MS/MS)
Parameters: species or system rat
particulars: male, Sprague-Dawley (SD), inhaled; rat lung tissue homogenate; pulmonary administration BA/AH-DPI 9 mg/kg; 2 min; read-out: Drug concentration of AH in lung tissue
Experimental: SPF-grade healthy SD male rats, body weight 180-220 g, purchased from SPF (Beijing) Biotechnology Co., Ltd (Certificate No. SCXK (Beijing) 2019-0010), were conventionally reared under (23±2)° C., humidity: (50±10)%. […] 100 μL of the plasma sample or lung tissue supernatant was precisely absorbed, and 200 μL (100 ng/mL) of methanol solution containing the internal standard was added. […] The contents of BA and AH were determined by UPLC-MS/MS method. […]
Where a name gives a salt, the structure may show the parent alone.
measurement_type: concentration at 2 min (ng/mL)

INSERT INTO results (molecule, measurement_type, numeric_result) VALUES
  ('Nc1c(Br)cc(Br)cc1CNC1CCC(O)CC1 (stereo not shown) [AH, ambroxol hydrochloride]', 'concentration at 2 min', 7610);

* * *

assay_remarks: In vivo pharmacokinetics, lung tissue homogenate (UPLC-MS/MS)
Design: species or system rat
particulars: male, Sprague-Dawley (SD), inhaled; rat lung tissue homogenate; pulmonary administration BA/AH-DPI 9 mg/kg; 120 min; read-out: Drug concentration of AH in lung tissue
Where a name gives a salt, the structure may show the parent alone.
measurement_type: concentration at 120 min (ng/mL)

INSERT INTO results (molecule, unit_descriptor, numeric_result) VALUES
  ('Nc1c(Br)cc(Br)cc1CNC1CCC(O)CC1 (stereo not shown) [AH, ambroxol hydrochloride]', 'ng/mL', 256);

* * *

assay_remarks: In vivo pharmacokinetics, plasma (UPLC-MS/MS)
Set-up: species or system rat
particulars: male, SD, inhaled; rat plasma; pulmonary administration BA/AH-DPI 9 mg/kg; 360 min; read-out: Blood concentration of BA
measurement_type: concentration at 360 min (ng/mL)

INSERT INTO measurements (smiles_data, numeric_result) VALUES
  ('O=C(O)[C@H]1O[C@@H](Oc2cc3oc(-c4ccccc4)cc(=O)c3c(O)c2O)[C@H](O)[C@@H](O)[C@@H]1O', 13.4);

* * *

assay_remarks: In vivo pharmacokinetics, plasma (UPLC-MS/MS)
Design: species or system rat
particulars: male, SD, inhaled or intranasal; BA in rat plasma; pulmonary administration group, BA/AH-DPI 9 mg/kg; read-out: Vz/F (apparent volume of distribution)
measurement_type: Vd/F (L/kg)

INSERT INTO results (smiles_data, unit_descriptor, numeric_result) VALUES
  ('O=C(O)[C@H]1O[C@@H](Oc2cc3oc(-c4ccccc4)cc(=O)c3c(O)c2O)[C@H](O)[C@@H](O)[C@@H]1O', 'L/kg', 20.9);
